Entries and their Concentration, oral phase (O) values follow.
Assay: In vitro simulated gastrointestinal digestion (SGD, INFOGEST 2.0): concentration and bioaccessibility by UHPLC-DAD-MSn
Details: controls (without enzymes); oral phase
READOUT: Concentration, oral phase (O) (µg/mL)

[[record]]
compound = "C[C@@H]1O[C@@H](O[C@H]2[C@H](Oc3cc(O)c4c(c3)O[C@H](c3ccc(O)cc3)CC4=O)O[C@H](CO)[C@@H](O)[C@@H]2O)[C@H](O)[C@H](O)[C@H]1O [NARN, naringin]"
endpoint_unit = "µg/mL"
meas_value = 322.30

[[record]]
compound = "O=c1c(-c2ccc(O)cc2)coc2cc(O)ccc12 [DAID, daidzein]"
endpoint_unit = "µg/mL"
meas_value = 14.24

[[record]]
compound = "O=C(O[C@@H]1Cc2c(O)cc(O)cc2O[C@@H]1c1cc(O)c(O)c(O)c1)c1cc(O)c(O)c(O)c1 [EGCG, epigallocatechin-3-O-gallate]"
endpoint_unit = "µg/mL"
meas_value = 706.03

[[record]]
compound = "Oc1cc(O)cc(O)c1 [PG, phloroglucinol]"
endpoint_unit = "µg/mL"
meas_value = 4909.58

[[record]]
compound = "C[C@@H]1O[C@@H](OC[C@H]2O[C@@H](Oc3c(-c4ccc(O)c(O)c4)oc4cc(O)cc(O)c4c3=O)[C@H](O)[C@@H](O)[C@@H]2O)[C@H](O)[C@H](O)[C@H]1O [RUT, rutin]"
endpoint_unit = "µg/mL"
meas_value = 331.30

[[record]]
compound = "O=C1C[C@@H](c2ccc(O)cc2)Oc2cc(O)cc(O)c21 [NAR, (+)-naringenin]"
endpoint_unit = "µg/mL"
meas_value = 367.13

[[record]]
compound = "O=c1cc(-c2ccc(O)cc2)oc2cc(O)cc(O)c12 [APG, apigenin]"
endpoint_unit = "µg/mL"
meas_value = 12.60

[[record]]
compound = "O=C(CCc1ccc(O)cc1)c1c(O)cc(O)cc1O [PH, phloretin]"
endpoint_unit = "µg/mL"
meas_value = 322.24


----------
Entries and their Concentration, gastric phase (G) values follow.
Experiment: In vitro simulated gastrointestinal digestion (SGD, INFOGEST 2.0): concentration and bioaccessibility by UHPLC-DAD-MSn
Settings: samples with enzymes; after gastric digestion pH 3.0
READOUT: Concentration, gastric phase (G) (µg/mL)

[[record]]
compound = "C[C@@H]1O[C@@H](O[C@H]2[C@H](Oc3cc(O)c4c(c3)O[C@H](c3ccc(O)cc3)CC4=O)O[C@H](CO)[C@@H](O)[C@@H]2O)[C@H](O)[C@H](O)[C@H]1O"
readout = "Concentration, gastric phase (G)"
meas_value = 365.14

[[record]]
compound = "O=C1C[C@@H](c2ccc(O)cc2)Oc2cc(O)cc(O)c21 [NAR, (+)-naringenin]"
readout = "Concentration, gastric phase (G)"
meas_value = 282.96

[[record]]
compound = "O=c1c(-c2ccc(O)cc2)coc2cc(O)ccc12"
readout = "Concentration, gastric phase (G)"
meas_value = 14.86

[[record]]
compound = "O=c1c(O)c(-c2ccc(O)c(O)c2)oc2cc(O)cc(O)c12"
readout = "Concentration, gastric phase (G)"
meas_value = 2.74

[[record]]
compound = "Oc1cc(O)cc(O)c1"
readout = "Concentration, gastric phase (G)"
meas_value = 4910.12

[[record]]
compound = "O=C(O[C@@H]1Cc2c(O)cc(O)cc2O[C@@H]1c1cc(O)c(O)c(O)c1)c1cc(O)c(O)c(O)c1 [EGCG, epigallocatechin-3-O-gallate]"
readout = "Concentration, gastric phase (G)"
meas_value = 1473.22

[[record]]
compound = "O=c1cc(-c2ccc(O)cc2)oc2cc(O)cc(O)c12"
readout = "Concentration, gastric phase (G)"
meas_value = 2.58

[[record]]
compound = "O=C(CCc1ccc(O)cc1)c1c(O)cc(O)cc1O"
readout = "Concentration, gastric phase (G)"
meas_value = 210.15

[[record]]
compound = "C[C@@H]1O[C@@H](OC[C@H]2O[C@@H](Oc3c(-c4ccc(O)c(O)c4)oc4cc(O)cc(O)c4c3=O)[C@H](O)[C@@H](O)[C@@H]2O)[C@H](O)[C@H](O)[C@H]1O"
readout = "Concentration, gastric phase (G)"
meas_value = 320.45


Sourced from paper PMC11016601
